B1: LINE1-mini (parent)
chain: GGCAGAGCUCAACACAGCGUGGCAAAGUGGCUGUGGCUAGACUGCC

variants of: B1; experiment: self-cleavage, relative activity (ratio to wild type); higher = more cleavage; in vitro, sequencing; the parent is a self-cleaving ribozyme
# self-cleavage annotations
Measure Name: self-cleavage

sequence_text=GGCAGAGCUCAACACAGCGUGGCAAAGUAGCUGUGGCUAGACUGGC reading=0.2
sequence_text=GGCAGAGCUCAACACAGCGUGGCAAAGUGGCUAUGGCUAGACAGCC reading=0.12
sequence_text=AGCAGAGCUCAAUACAGCGUGGCAAAGUGGCUGUGGCUAGACUGCC reading=0.2
sequence_text=GGCAGAGCUCAACACAGCGUAGUAAAGUGGCUGUGGCUAGACUGCC reading=1.02
sequence_text=GUCAGAGCUCUACACAGCGUGGCAAAGUGGCUGUGGCUAGACUGCC reading=0.03
sequence_text=GGCAGAGCUCAACAUAGCGAGGCAAAGUGGCUGUGGCUAGACUGCC reading=0.92
sequence_text=GGCAGAGCUCAACACAGCGAAGCAAAGUGGCUGUGGCUAGACUGCC reading=0.76
sequence_text=GGCAGAGCUCAACACAGCCUGGCAAAGUGGCUGUGGCUAGACUACC reading=0.15
sequence_text=GGCAGCGCUCAACACAGCGUGCCAAAGUGGCUGUGGCUAGACUGCC reading=0.65
sequence_text=GGCAGAGCCCAACAAAGCGUGGCAAAGUGGCUGUGGCUAGACUGCC reading=0.03
sequence_text=CGCAGAGCUCAACACAGCGUGGCAAAGUGGCUGUGGCUACACUGCC reading=0.03
sequence_text=GGCAGGGCUCAACAUAGCGUGGCAAAGUGGCUGUGGCUAGACUGCC reading=0.17
sequence_text=GACAGAGCUCAACACAGCGUGGCAGAGUGGCUGUGGCUAGACUGCC reading=0.23
sequence_text=GGCCGAGCUGAACACAGCGUGGCAAAGUGGCUGUGGCUAGACUGCC reading=0.03
sequence_text=GGCAGAGCUCAAGACAGCGUGGCAAAGUGGCUGUGGCUAGACUCCC reading=0.05
sequence_text=GGCCUAGCUCAACACAGCGUGGCAAAGUGGCUGUGGCUAGACUGCC reading=0.21
sequence_text=GGCAGAGCUCAUCACACCGUGGCAAAGUGGCUGUGGCUAGACUGCC reading=0.25
sequence_text=GGCAGAGCUCAACGCAGCGUGGCAAAGUGGCUGGGGCUAGACUGCC reading=0.3
sequence_text=GGCAGAGCUCAACACAGCAUGGCAAAUUGGCUGUGGCUAGACUGCC reading=0.93
sequence_text=GGCAGAGCUCAACACAGCGUGGCCAAGAGGCUGUGGCUAGACUGCC reading=0.6
sequence_text=GUCAUAGCUCAACACAGCGUGGCAAAGUGGCUGUGGCUAGACUGCC reading=0.02
sequence_text=GGCAGAGCUCAACACAGCGGGGCAAAGUGGCUGAGGCUAGACUGCC reading=0.06
sequence_text=UGCAGAGCUCAACACGGCGUGGCAAAGUGGCUGUGGCUAGACUGCC reading=0.22
sequence_text=GGCAGAGCUCAACACAGCGUGGCAAAGUGGCUGUUGCUAGAAUGCC reading=0.08
sequence_text=GGCAGAGUUCAACACAGCGUGGCAAAGUGGCUGUGGCGAGACUGCC reading=0.04
sequence_text=GGCAGAGCUCAACACAACGUGGCAAAGUGGCAGUGGCUAGACUGCC reading=0.06
sequence_text=GGCAGAGCUCAACACAGGGUGGCAAAGUGGCUGUGGCAAGACUGCC reading=0.38
sequence_text=GGCAGAGCUCAACACAGCGUGGCAAAGUGGCUGUGCCAAGACUGCC reading=0.06
sequence_text=GGCAGAGCUCCACACAGCGUGGCAAAGUGGUUGUGGCUAGACUGCC reading=0.03
sequence_text=GGCAGAGCUCAACGCAGCGUGGCAAGGUGGCUGUGGCUAGACUGCC reading=0.43
sequence_text=GGCAGAGCUCAACUCAGCGUGCCAAAGUGGCUGUGGCUAGACUGCC reading=0.27
sequence_text=GGCAGAGCUCAACACAGCGAGGCGAAGUGGCUGUGGCUAGACUGCC reading=0.68
sequence_text=GGCAGAGCUCAACACAGCGUGGCAAAUUGGCUGUGGCUCGACUGCC reading=0.22
sequence_text=GGCAGAGCUCAACACAGCGUGGCAAAGUGGCUGUGGGUAGACUGCU reading=0.04
sequence_text=GGCAGAGCUCAACACAGCGUGGCAAAGUGGCUGUGGCUGGACUCCC reading=0.09
sequence_text=GGCAGAGCUCAACAUAGCGUGACAAAGUGGCUGUGGCUAGACUGCC reading=1.21
sequence_text=GUCAGAGCUCAACACAGCGUGGCAAAGUGGCUGUGGCUAGGCUGCC reading=0.09
sequence_text=GGCAGAGCUCAACACAGCGUGGCAAAGUGCCUGUGGCUAGACUGCU reading=1.09
sequence_text=GGCAGAGAUCAACACAGCGUGGCAAAGUGGCUGUGGCUAGUCUGCC reading=0.48
sequence_text=CGCAGAGCUCAACACAGCGUGGCAAAGUGGCUGUGGCGAGACUGCC reading=0.01
sequence_text=GGCAGAGCUCAACACAGCGAGGCAAAGUGGCUGUGCCUAGACUGCC reading=0.07
sequence_text=GGCAGAGCCCAACACAGCGUGGCAACGUGGCUGUGGCUAGACUGCC reading=0.03
